Recorded IC50, one value per entry.
System: MDA-MB-231 triple-negative breast cancer cells
Experiment: cells
Format: cell-based, human
Details: MTT assay, MDA-MB-231; read-out: Cytotoxicity, IC50, MDA-MB-231

| Compound | Tested system | IC50 |
| --- | --- | --- |
| C=C(C)CC[C@@H](OC(C)=O)[C@]1(C)OC(=O)C23CC=C4[C@@H](CC[C@H]5C(C)(C)[C@@H](O[C@@H]6OC[C@@H](O)[C@H](O)[C@H]6O[C@@H]6O[C@H](C)[C@@H](O[C@@H]7O[C@H](CO)[C@@H](O)[C@H](O[C@@H]8O[C@H](CO)[C@@H](O)[C@H](OC)[C@H]8O)[C@H]7O)[C@H](O)[C@H]6O)CC[C@]45C)[C@]2(C)C[C@H](OC(C)=O)[C@@H]31 (some centres unmarked) [A6 (10), cladoloside A6] | MDA-MB-231 triple-negative breast cancer cells | > 20 µM |
| C=C(C)CC[C@@H](OC(C)=O)[C@]1(C)OC(=O)C23CC=C4[C@@H](CC[C@H]5C(C)(C)[C@@H](O[C@@H]6OC[C@@H](O[C@@H]7OC[C@@H](O)[C@H](O[C@@H]8O[C@H](CO)[C@@H](O)[C@H](OC)[C@H]8O)[C@H]7O)[C@H](O)[C@H]6O[C@@H]6O[C@H](C)[C@@H](O[C@@H]7OC[C@@H](O)[C@H](O[C@@H]8O[C@H](CO)[C@@H](O)[C@H](OC)[C@H]8O)[C@H]7O)[C@H](O)[C@H]6O)CC[C@]45C)[C@]2(C)C[C@H](OC(C)=O)[C@@H]31 (some centres unmarked) [Cladoloside G (25), cladoloside G] | MDA-MB-231 triple-negative breast cancer cells | 3.95 µM |
| C=C(C)CCC[C@]1(C)OC(=O)C23CC=C4[C@@H](CC[C@H]5C(C)(C)[C@@H](O[C@@H]6OC[C@@H](O[C@@H]7O[C@H](CO)[C@@H](O)[C@H](O[C@@H]8O[C@H](CO)[C@@H](O)[C@H](OC)[C@H]8O)[C@H]7O)[C@H](O)[C@H]6O[C@@H]6O[C@H](C)[C@@H](O[C@@H]7O[C@H](CO)[C@@H](O)[C@H](O[C@@H]8O[C@H](CO)[C@@H](O)[C@H](OC)[C@H]8O)[C@H]7O)[C@H](O)[C@H]6O)CC[C@]45C)[C@]2(C)CC(=O)[C@@H]31 (some centres unmarked) [Cladoloside M1 (35), cladoloside M1] | MDA-MB-231 triple-negative breast cancer cells | 5.05 µM |

Query string: Consider the compound shown here: C=C(C)CC[C@@H](OC(C)=O)[C@]1(C)OC(=O)C23CC=C4[C@@H](CC[C@H]5C(C)(C)[C@@H](O[C@@H]6OC[C@@H](O)[C@H](O)[C@H]6O[C@@H]6O[C@H](C)[C@@H](O[C@@H]7OC[C@@H](O)[C@H](O[C@@H]8O[C@H](CO)[C@@H](O)[C@H](OC)[C@H]8O)[C@H]7O)[C@H](O)[C@H]6O)CC[C@]45C)[C@]2(C)C[C@H](OC(C)=O)[C@@H]31 (some centres unmarked) [A2 (6), cladoloside A2] What is its recorded IC50?
Result string: > 20 µM

Query string: Now the same for C=C(C)CC[C@@H](OC(C)=O)[C@]1(C)OC(=O)C23CC=C4[C@@H](CC[C@H]5C(C)(C)[C@@H](O[C@@H]6OC[C@@H](O[C@@H]7O[C@H](CO)[C@@H](O)[C@H](O)[C@H]7O)[C@H](O)[C@H]6O[C@@H]6O[C@H](C)[C@@H](O[C@@H]7OC[C@@H](O)[C@H](O[C@@H]8O[C@H](CO)[C@@H](O)[C@H](OC)[C@H]8O)[C@H]7O)[C@H](O)[C@H]6O)CC[C@]45C)[C@]2(C)C[C@H](OC(C)=O)[C@@H]31 (some centres unmarked) [Cladoloside B2 (12), cladoloside B2]
Result string: 3.92 µM

====

Assay: in vitro
Assay type: cell-based, human
Details: human
pIC50: −log10 of the molar value.
# reported pIC50; entries follow

| Molecule | pIC50 |
| --- | --- |
| CO[C@@H]1[C@@H](O)[C@H](O[C@@H]2[C@@H](O)[C@H](O[C@H]3[C@H](O)[C@@H](O)[C@H](O[C@H]4[C@H](O[C@H]5CC[C@]6(C)C7=CCC89C(=O)O[C@@](C)([C@@H](CCC(C)C)OC(C)=O)[C@H]8[C@@H](OC(C)=O)C[C@@]9(C)[C@@H]7CC[C@H]6C5(C)C)OC[C@@H](O[C@@H]5OC[C@@H](O)[C@H](O)[C@H]5O)[C@@H]4O)O[C@@H]3C)OC[C@H]2O)O[C@H](COS(=O)(=O)O)[C@H]1O (some centres unmarked) [Cladoloside S1 (2)] | < 4.70 |

We next turn to a different molecule, shown below.
Query string: Look up pIC50 for this molecule: C=C(C)CC[C@@H](OC(C)=O)[C@]1(C)OC(=O)C23CC=C4[C@@H](CC[C@H]5C(C)(C)[C@@H](O[C@@H]6OC[C@@H](O[C@@H]7OC[C@@H](O)[C@H](O)[C@H]7O)[C@H](O)[C@H]6O[C@@H]6O[C@H](C)[C@@H](O[C@@H]7OC[C@@H](O)[C@H](O[C@@H]8O[C@H](COS(=O)(=O)O)[C@@H](O)[C@H](OC)[C@H]8O)[C@H]7O)[C@H](O)[C@H]6O)CC[C@]45C)[C@]2(C)C[C@H](OC(C)=O)[C@@H]31 (some centres unmarked) [Cladoloside S (1)]
Result string: < 4.70

====

Test system: human erythrocytes
Assay: Hemolytic activity against human erythrocytes
Format: cell-based
Details: 1 h at 37 °C
Assay metric: ED50, Erythrocytes (hemolytic activity) (µM)
Quick note: give the figure in µM, leave out the unit.

| Compound | Units text | ED50, Erythrocytes (hemolytic activity) |
| --- | --- | --- |
| COC1C(O)C(CO)OC(OC2C(O)COC(OC3C(C)OC(OC4C(OC5CCC6(C)C7=CCC89C(=O)OC(C)(CC=CC(C)(C)O)C8C(=O)CC9(C)C7CCC6C5(C)C)OCC(O)C4O)C(O)C3O)C2O)C1O (centres unmarked) [A5 (9), cladoloside A5] | µM | 7.19 |

Query string: Return ED50, Erythrocytes (hemolytic activity) measured with human erythrocytes given this compound: C=C(C)CC[C@@H](OC(C)=O)[C@]1(C)OC(=O)C23CC=C4[C@@H](CC[C@H]5C(C)(C)[C@@H](O[C@@H]6OC[C@@H](O)[C@H](O)[C@H]6O[C@@H]6O[C@H](C)[C@@H](O[C@@H]7O[C@H](CO)[C@@H](O)[C@H](O[C@@H]8O[C@H](CO)[C@@H](O)[C@H](OC)[C@H]8O)[C@H]7O)[C@H](O)[C@H]6O)CC[C@]45C)[C@]2(C)C[C@H](OC(C)=O)[C@@H]31 (some centres unmarked) [A6 (10), cladoloside A6]
Result string: 3.43

====

Tested on: MCF-7 human breast cancer cells;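 also: IC50 values, including those behind the selectivity ratio, derive from formazan absorbance at 570 nm, tested in triplicate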
Test: cells
Format: cell-based
Settings: MTT assay, MCF-7; read-out: Cytotoxicity, IC50, MCF-7
Reported values of IC50 for individual entries

| Compound | Assay metric | Result |
| --- | --- | --- |
| C=C(C)CCC[C@]1(C)OC(=O)C23CC=C4[C@@H](CC[C@H]5C(C)(C)[C@@H](O[C@@H]6OC[C@@H](O[C@@H]7O[C@H](CO)[C@@H](O)[C@H](O[C@@H]8O[C@H](CO)[C@@H](O)[C@H](OC)[C@H]8O)[C@H]7O)[C@H](O)[C@H]6O[C@@H]6O[C@H](C)[C@@H](O[C@@H]7O[C@H](CO)[C@@H](O)[C@H](O[C@@H]8O[C@H](CO)[C@@H](O)[C@H](OC)[C@H]8O)[C@H]7O)[C@H](O)[C@H]6O)CC[C@]45C)[C@]2(C)CC(=O)[C@@H]31 (some centres unmarked) [Cladoloside M1 (35), cladoloside M1] | IC50 | > 20 µM |

Query string: So what IC50 did CO[C@@H]1[C@@H](O)[C@H](O[C@@H]2[C@@H](O)[C@H](O[C@H]3[C@H](O)[C@@H](O)[C@H](O[C@H]4[C@H](O[C@H]5CC[C@]6(C)C7=CCC89C(=O)O[C@@](C)([C@@H](CCC(C)C)OC(C)=O)[C@H]8[C@@H](OC(C)=O)C[C@@]9(C)[C@@H]7CC[C@H]6C5(C)C)OC[C@@H](O[C@@H]5O[C@H](CO)[C@@H](O)[C@H](O)[C@H]5O)[C@@H]4O)O[C@@H]3C)OC[C@H]2O)O[C@H](CO)[C@H]1O (some centres unmarked) [Cladoloside B1 (11), cladoloside B1] get with MCF-7 human breast cancer cells?
Result string: > 20 µM

Query string: Now the compound CO[C@@H]1[C@@H](O)[C@H](O[C@@H]2[C@@H](O)[C@H](O[C@H]3[C@H](O)[C@@H](O)[C@H](O[C@H]4[C@H](O[C@H]5CC[C@]6(C)C7=CCC89C(=O)O[C@@](C)(CCC=C(C)C)[C@H]8C(=O)C[C@@]9(C)[C@@H]7CC[C@H]6C5(C)C)OC[C@@H](O)[C@@H]4O)O[C@@H]3C)OC[C@H]2O)O[C@H](CO)[C@H]1O (some centres unmarked) [A4 (8), cladoloside A4]
Result string: > 20 µM

Query string: Continue with COC1C(O)C(CO)OC(OC2C(O)COC(OC3C(C)OC(OC4C(OC5CCC6(C)C7=CCC89C(=O)OC(C)(CC=CC(C)(C)O)C8C(=O)CC9(C)C7CCC6C5(C)C)OCC(O)C4O)C(O)C3O)C2O)C1O (centres unmarked) [A5 (9), cladoloside A5]
Result string: > 20 µM

Query string: Do the same for C=C(C)CC[C@@H](OC(C)=O)[C@]1(C)OC(=O)C23CC=C4[C@@H](CC[C@H]5C(C)(C)[C@@H](O[C@@H]6OC[C@@H](O[C@@H]7OC[C@@H](O)[C@H](O[C@@H]8O[C@H](CO)[C@@H](O)[C@H](O)[C@H]8O)[C@H]7O)[C@H](O)[C@H]6O[C@@H]6O[C@H](C)[C@@H](O[C@@H]7OC[C@@H](O)[C@H](O[C@@H]8O[C@H](CO)[C@@H](O)[C@H](OC)[C@H]8O)[C@H]7O)[C@H](O)[C@H]6O)CC[C@]45C)[C@]2(C)C[C@H](OC(C)=O)[C@@H]31 (some centres unmarked) [Cladoloside D (18), Cladoloside D] please
Result string: 15.3 µM
